Source: patent US11628160B2

- Assayed Target: human V1a receptor (Homo sapiens)
- Construct: host or cells: CHO cells
- Sequence (P37288 whole entry): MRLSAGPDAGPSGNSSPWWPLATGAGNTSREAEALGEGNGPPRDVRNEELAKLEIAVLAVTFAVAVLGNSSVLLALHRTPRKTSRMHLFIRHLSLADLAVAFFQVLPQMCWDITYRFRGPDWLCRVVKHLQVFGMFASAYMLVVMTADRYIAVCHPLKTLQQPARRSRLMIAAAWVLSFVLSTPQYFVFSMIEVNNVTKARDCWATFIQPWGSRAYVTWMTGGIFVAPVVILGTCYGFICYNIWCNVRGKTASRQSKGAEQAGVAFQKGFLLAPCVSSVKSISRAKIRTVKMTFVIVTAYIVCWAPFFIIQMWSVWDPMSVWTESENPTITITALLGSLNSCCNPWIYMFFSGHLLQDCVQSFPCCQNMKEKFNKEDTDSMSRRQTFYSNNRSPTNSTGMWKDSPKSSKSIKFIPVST
- Test Protocol: Human vasopressin V1a receptor binding assay
- Measurement Conditions: hV1a CHO cell line, competition with 1 nM 3H-AVP; read-out: V1a Ki
Recorded Ki values for a group of compounds are listed next.
Supply the numeric figure in nM, leaving out any unit text.

Compound: O=C(NCc1ccccc1C(F)(F)F)C(CCC(=O)N1CCN(C2CCCCC2)CC1)N1C(=O)C(N2C(=O)OCC2c2ccccc2)C1C=Cc1ccccc1 (stereo not drawn) [Example 182]
Assayed Target: human V1a receptor (Homo sapiens)
Measured Metric: Ki
Units Symbol: nM
Observed Measurement: 0.93
//
Compound: O=C(NCc1cccc(Cl)c1Cl)C(CCC(=O)N1CCN(C2CCCCC2)CC1)N1C(=O)C(N2C(=O)OCC2c2ccccc2)C1C=Cc1ccccc1 (stereo not drawn) [Example 176]
Assayed Target: human V1a receptor (Homo sapiens)
Measured Metric: Ki
Units Symbol: nM
Observed Measurement: 0.38
//
Compound: O=C(NCc1cccc(C(F)(F)F)c1)[C@H](CCC(=O)N1CCN(N2CCCC2)CC1)N1C(=O)[C@@H](N2C(=O)OC[C@@H]2c2ccccc2)[C@H]1/C=C/c1ccccc1 [Example 91]
Assayed Target: human V1a receptor (Homo sapiens)
Measured Metric: Ki
Units Symbol: nM
Observed Measurement: 1.99

Asked: Which Ki is listed for O=C(C(COCc1ccccc1)N1C(=O)C(N2C(=O)OCC2c2ccccc2)C1C=Cc1ccccc1)N1CCC(CN2CCCCC2)CC1 (stereo not drawn) [Example 232E] ?
Given back: 0.17

Asked: How about CC(NC(=O)C(CC(=O)N1CCC(N2CCCCC2)CC1)N1C(=O)C(N2C(=O)OCC2c2cccc(Cl)c2)C1C=Cc1ccccc1)c1ccccc1 (stereo not drawn) [Example 256] ?
Given back: 1.7

====

- Assayed Target: human V1a receptor (Homo sapiens)
- Construct: host or cells: CHO cells
- Test Protocol: Human vasopressin V1a receptor binding assay
- Measurement Conditions: hV1a CHO cell line, competition with 1 nM 3H-AVP; read-out: V1a Binding Affinity IC50
Recorded pIC50 values for a group of compounds are listed next.
The value called pIC50 is obtained by taking minus log10 of the concentration in mol/L.

Please review the following examples before continuing.
Compound: O=C(NCc1cccc(C(F)(F)F)c1)C(CCC(=O)N1CCN(C2CCCCC2)CC1)N1C(=O)C(N2C(=O)OCC2c2ccccc2)C1C=Cc1ccccc1 (stereo not shown) [Example 120H]
Assayed Target: human V1a receptor (Homo sapiens)
Observed Measurement: 8.56
//
Compound: CC(NC(=O)C(CCC(=O)N1CCN(C2CCCCC2)CC1)N1C(=O)C(N2C(=O)OCC2c2ccccc2)C1C=Cc1ccccc1)c1ccccc1 (stereo not shown)
Assayed Target: human V1a receptor (Homo sapiens)
Observed Measurement: 8.80
//
Compound: CC(NC(=O)C(CC(=O)N1CCC(N2CCCCC2)CC1)N1C(=O)C(N2C(=O)OCC2c2ccccc2)C1CCc1cccc(Br)c1)c1ccccc1 (stereo not shown)
Assayed Target: human V1a receptor (Homo sapiens)
Observed Measurement: 9.28

Asked: Give recorded pIC50 with human V1a receptor (Homo sapiens) for the following compound: COc1cc(OC)cc(C(C)(C)NC(=O)C(CCC(=O)N2CCN(C3CCCCC3)CC2)N2C(=O)C(N3C(=O)OCC3c3ccccc3)C2C=Cc2ccccc2)c1 (stereo not shown)
Given back: 8.11

Asked: How about O=C(NC1(c2ccccc2)CCCC1)C(CCC(=O)N1CCN(C2CCCCC2)CC1)N1C(=O)C(N2C(=O)OCC2c2ccccc2)C1C=Cc1cccc(Cl)c1 (stereo not shown) ?
Given back: 8.47

Asked: How about O=C(NCc1ccccn1)C(CCC(=O)N1CCN(C2CCCCC2)CC1)N1C(=O)C(N2C(=O)OCC2c2ccccc2)C1C=Cc1ccccc1 (stereo not shown) ?
Given back: 7.79

Asked: How about C[C@@H](NC(=O)[C@H](CCC(=O)N1CCN(C2CCCCC2)CC1)N1C(=O)[C@@H](N2C(=O)OC[C@@H]2c2ccccc2)[C@H]1/C=C/c1ccccc1)c1cccc(C(F)(F)F)c1 [Example 221F] ?
Given back: 8.77
